Target: USP1 (construct USP1 (I-785, GG670, 671AA)/UAF1 (I-677)-Flag) (Homo sapiens (Human), UniProt O94782, G670A/G671A)
Sequence (O94782 whole entry G670A/G671A): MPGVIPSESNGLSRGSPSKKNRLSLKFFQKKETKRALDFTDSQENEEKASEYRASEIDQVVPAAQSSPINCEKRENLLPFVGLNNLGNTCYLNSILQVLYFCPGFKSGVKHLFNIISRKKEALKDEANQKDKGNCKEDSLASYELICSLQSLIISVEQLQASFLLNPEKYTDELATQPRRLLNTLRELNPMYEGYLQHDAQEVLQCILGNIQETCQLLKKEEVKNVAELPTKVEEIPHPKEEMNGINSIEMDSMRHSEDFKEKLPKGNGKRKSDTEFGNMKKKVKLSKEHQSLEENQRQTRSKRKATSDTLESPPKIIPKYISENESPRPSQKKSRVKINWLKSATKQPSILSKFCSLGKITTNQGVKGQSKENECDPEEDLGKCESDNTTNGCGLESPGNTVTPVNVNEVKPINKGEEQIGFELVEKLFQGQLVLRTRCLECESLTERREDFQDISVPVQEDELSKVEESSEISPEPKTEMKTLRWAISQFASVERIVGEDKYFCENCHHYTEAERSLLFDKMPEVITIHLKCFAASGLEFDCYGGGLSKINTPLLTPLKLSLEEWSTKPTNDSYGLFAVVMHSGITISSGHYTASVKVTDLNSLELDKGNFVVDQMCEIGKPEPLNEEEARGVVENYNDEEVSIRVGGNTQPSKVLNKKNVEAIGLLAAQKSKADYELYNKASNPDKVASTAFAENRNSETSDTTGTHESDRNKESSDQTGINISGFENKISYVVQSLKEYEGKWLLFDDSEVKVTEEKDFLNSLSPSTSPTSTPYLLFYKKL
Sequence (Q8TAF3 whole entry partner): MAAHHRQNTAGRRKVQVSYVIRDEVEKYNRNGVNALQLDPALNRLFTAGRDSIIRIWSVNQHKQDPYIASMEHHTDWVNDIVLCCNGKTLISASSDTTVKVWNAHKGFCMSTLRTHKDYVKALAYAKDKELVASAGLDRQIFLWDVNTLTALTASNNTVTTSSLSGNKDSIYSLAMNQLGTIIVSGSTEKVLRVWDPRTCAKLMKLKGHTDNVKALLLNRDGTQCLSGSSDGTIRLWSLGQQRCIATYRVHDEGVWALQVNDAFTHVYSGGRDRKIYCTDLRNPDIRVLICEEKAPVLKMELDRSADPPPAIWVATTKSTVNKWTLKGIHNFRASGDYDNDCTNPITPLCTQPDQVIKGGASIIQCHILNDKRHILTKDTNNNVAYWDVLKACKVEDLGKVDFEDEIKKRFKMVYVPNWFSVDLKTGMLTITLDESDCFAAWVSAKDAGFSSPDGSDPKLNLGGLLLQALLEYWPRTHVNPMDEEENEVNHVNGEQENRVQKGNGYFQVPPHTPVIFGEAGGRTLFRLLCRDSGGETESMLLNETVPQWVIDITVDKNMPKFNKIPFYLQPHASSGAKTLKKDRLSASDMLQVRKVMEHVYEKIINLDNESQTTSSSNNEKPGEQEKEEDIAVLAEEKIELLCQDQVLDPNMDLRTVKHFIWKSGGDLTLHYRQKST
Assay: Ubiquitin-Rhodamine 110 assay for USP1 activity
Type: biochemical
Conditions: USP1/UAF1 25 pM, Ub-Rh110 25 nM, 30 min preincubation
pIC50: −log10 of the molar value.
For each entry below, report its pIC50 value.

Exam item: Give the reported pIC50 for this compound. CC(C)c1ccccc1-c1ncc2[nH]c(=O)n([C@@H](C)c3ccc(-c4nc(C(F)(F)F)cn4C)cc3)c2n1 [Compound I-215]
Marked response: > 7.30

Exam item: Give the reported pIC50 for this compound. CC(C)c1ccccc1-c1ncc2c(n1)n(Cc1cccc(OCc3ccccn3)c1)c(=O)n2C [Compound I-242]
Marked response: < 5.70

Exam item: Give the reported pIC50 for this compound. CC(C)c1ccccc1-c1ncc2c(n1)n(Cc1cccc(OC3CCC3)c1)c(=O)n2C [Compound I-246]
Marked response: < 5.70

Exam item: Give the reported pIC50 for this compound. CC(C)c1ccccc1-c1ncc2[nH]c(=O)n(Cc3ccc(-c4cn(CCO)nn4)cc3)c2n1 [Compound I-522]
Marked response: 5.70 to 6.70

Exam item: Give the reported pIC50 for this compound. CC(C)c1c(F)cccc1-c1ncc2[nH]c(=O)n(Cc3ccc(-n4ccc(C5CCN(C)CC5)n4)cc3)c2n1 [Compound I-441]
Marked response: 6.70 to 7.30

Exam item: Give the reported pIC50 for this compound. CC(C)c1ccccc1-c1ncc2[nH]c(=O)n(Cc3ccc(N4CCCC4=O)cc3)c2n1 [Compound I-512]
Marked response: 6.70 to 7.30

Exam item: Give the reported pIC50 for this compound. CC(C)c1ncc(F)cc1-c1ncc2c(n1)n(Cc1ccc(-c3nc(C(F)(F)F)cn3C)cc1)c(=O)n2C [Compound I-69]
Marked response: > 7.30

Exam item: Give the reported pIC50 for this compound. COc1nc(-c2ccc(Cn3c(=O)n(C)c4cnc(-c5ccccc5C(C)C)nc43)cc2)nn1C [Compound I-281]
Marked response: > 7.30

Exam item: Give the reported pIC50 for this compound. CC(=O)N1CCCC(c2ccn(-c3ccc(Cn4c(=O)[nH]c5cnc(-c6ccccc6C(C)C)nc54)cc3)n2)C1 (stereo not drawn) [Compound I-468]
Marked response: > 7.30

Exam item: Give the reported pIC50 for this compound. CC(C)c1ccccc1-c1ncc2c(n1)n(Cc1ccc(-c3cn(C)cn3)cc1)c(=O)n2C [Compound I-271]
Marked response: > 7.30

Exam item: Give the reported pIC50 for this compound. COCCNC(=O)Nc1ccc(Cn2c(=O)n(C)c3cnc(-c4ccccc4C(C)C)nc32)cc1 [Compound I-482]
Marked response: 5.70 to 6.70

Exam item: Give the reported pIC50 for this compound. CC(C)c1ccccc1-c1ncc2c(n1)n(Cc1ccc(-c3cccc4nccn34)cc1)c(=O)n2C [Compound I-270]
Marked response: 5.70 to 6.70

Exam item: Give the reported pIC50 for this compound. CC(C)c1ncc(F)cc1-c1ncc2[nH]c(=O)n(Cc3ccc(-c4nc(C(F)(F)F)cn4C)cc3)c2n1 [Compound I-67]
Marked response: > 7.30

Exam item: Give the reported pIC50 for this compound. CC(C)c1ccccc1-c1ncc2[nH]c(=O)n(Cc3ccc(C(=O)N4CC(O)C4)cc3)c2n1 [Compound I-377]
Marked response: < 5.70

Exam item: Give the reported pIC50 for this compound. CNc1ncccc1-c1ncc2[nH]c(=O)n(Cc3ccc(-c4nc(C(F)(F)F)cn4C)cc3)c2n1 [Compound I-311]
Marked response: > 7.30
